Target or system UniProtKB Q9Y3Z3; recorded quantity pKi.
Sequence (Q9Y3Z3 whole entry): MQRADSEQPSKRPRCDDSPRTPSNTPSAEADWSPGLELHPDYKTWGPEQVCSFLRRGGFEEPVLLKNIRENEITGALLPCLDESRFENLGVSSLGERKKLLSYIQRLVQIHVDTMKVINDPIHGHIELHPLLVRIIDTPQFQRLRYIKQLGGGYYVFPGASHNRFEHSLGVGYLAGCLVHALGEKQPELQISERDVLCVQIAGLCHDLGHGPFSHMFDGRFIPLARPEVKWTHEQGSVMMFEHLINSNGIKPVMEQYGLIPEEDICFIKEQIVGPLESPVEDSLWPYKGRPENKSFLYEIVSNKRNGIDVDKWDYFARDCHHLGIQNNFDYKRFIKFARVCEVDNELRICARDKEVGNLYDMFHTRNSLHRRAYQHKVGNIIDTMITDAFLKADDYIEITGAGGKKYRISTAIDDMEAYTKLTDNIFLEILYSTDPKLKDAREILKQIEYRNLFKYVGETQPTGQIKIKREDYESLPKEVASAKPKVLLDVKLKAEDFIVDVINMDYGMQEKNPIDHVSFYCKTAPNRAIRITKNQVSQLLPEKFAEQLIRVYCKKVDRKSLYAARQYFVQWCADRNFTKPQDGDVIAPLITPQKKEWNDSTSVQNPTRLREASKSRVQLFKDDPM
Here pKi is given on a logarithmic scale as minus log10 of the concentration in mol/L.

[Q] Requested field: pKi. Item: `Nc1nc2c(ncn2[C@H]2C[C@H](O)[C@@H](CO[P@](O)(=S)OP(=O)(O)OP(=O)(O)O)O2)c(=O)[nH]1`
[A] 6.09

[Q] Requested field: pKi. Item: `Nc1ccn([C@H]2C[C@H](O)[C@@H](CO[P@](O)(=S)OP(=O)(O)OP(=O)(O)O)O2)c(=O)n1`
[A] 5.20

[Q] Requested field: pKi. Item: `Nc1ncnc2c1ncn2[C@H]1C[C@H](O)[C@@H](CO[P@](O)(=S)OP(=O)(O)OP(=O)(O)O)O1`
[A] 3.93

[Q] Requested field: pKi. Item: `Cc1cn([C@H]2C[C@H](O)[C@@H](CO[P@](O)(=S)OP(=O)(O)OP(=O)(O)O)O2)c(=O)[nH]c1=O`
[A] 4.34

Provenance of the data: paper PMC8173608
